Molecular target: Fatty acid-binding protein, brain (FABP7) (Homo sapiens, UniProt O15540)
Sequence (O15540 whole entry): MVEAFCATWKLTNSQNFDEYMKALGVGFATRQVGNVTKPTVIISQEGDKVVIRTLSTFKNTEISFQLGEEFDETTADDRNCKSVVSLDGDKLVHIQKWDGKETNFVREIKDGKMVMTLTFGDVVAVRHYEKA
Test: Binding assays for FABP3, FABP4, FABP5 and FABP7
Description: Binding assays for FABP3, FABP4, FABP5 and FABP7 were carried out by fluorescence titrations. His-tagged FABPs were bacterially expressed in E. coli, purified using Ni Sepharose beads, and the equilibrium dissociation constants (Kd) that characterize their interactions with different inhibitor compounds were measured by fluorescence competition assays. […] In the first step, Kd for the association of the protein with the fluorescent fatty acid probe ANS was measured. […]
pKd: −log10 of the molar value.
Property name: pKd

CC(C)Oc1nc(NC(=O)CC(C)(C)CC(=O)O)c(Cl)cc1Cl | 7.37

src = BindingDB's records for patent US20250325529
